These data points were gathered from PubChem BioAssay (NCI).

System: LOX IMVI melanoma
protocol: NCI tumour cell line growth inhibition, 48 h
Answer each item with its documented TGI.
Answer with a number only, understood to be in µM.

Lab book: TGI of COc1ccc2c(c1)[C@]1(C[C@H]1c1ccc3c(/C=C/c4ccc(CN5C[C@@H](C)O[C@@H](C)C5)cc4)n[nH]c3c1)C(=O)N2 noted as 10.4

Lab book: TGI of CN1C(OCc2ccccc2)c2c(ccc3c2OCO3)C2C=Cc3cc4c(cc3C21)OCO4 (centres undefined) noted as 0.337

* * *

Test system: MCF7 breast
protocol: NCI tumour cell line growth inhibition, 48 h
reported.metric: TGI

Lab book: TGI of O=C1c2ccccc2NC(c2cc(Cl)cc(Cl)c2O)N1CCc1ccccn1 (stereo not drawn) noted as > 100 µM

Lab book: TGI of Cn1cc(C2=C(c3c4n(c5ccccc35)CCCC4)C(=O)NC2=O)c2ccccc21 noted as > 25 µM

Lab book: TGI of CC(=O)Nc1ccc(-c2c3nc(c(-c4cc5ccccc5[n+](C)c4)c4ccc([nH]4)c(-c4ccc(NC(C)=O)cc4)c4nc(c(-c5cc6ccccc6[n+](C)c5)c5ccc2[nH]5)C=C4)C=C3)cc1 noted as > 50 µM

Lab book: TGI of COC(=O)Nc1nc2ccc(Oc3ccc4nc(NC(=O)OC)[nH]c4c3)cc2[nH]1 noted as > 100 µM

Lab book: TGI of COC(=O)C1=C(OC(=O)/C(=C/c2ccc(Cl)cc2Cl)c2ccc(Cl)cc2Cl)C(C(=O)OC)[C@@]2(O)[C@@H](C(=O)OC)[C@H](C)C[C@@H]1[C@@H]2C(=O)OC (stereo partly drawn) noted as > 100 µM

Lab book: TGI of CCC(CC)C(=O)OC[n+]1ccc(-c2c(COC(=O)NC(C)C)c(COC(=O)NC(C)C)c3n2CCC3)cc1 noted as > 100 µM

Lab book: TGI of O[C@@]1(c2cccs2)c2cccc(Cl)c2[C@](O)(c2cccs2)c2cccc(Cl)c21 noted as 37.2 µM

Lab book: TGI of C=C[C@@H](OCOCC[Si](C)(C)C)[C@@H](CC)OC(CCCOC(=O)C(C)(C)C)OC (stereo partly drawn) noted as 44.9 µM

Lab book: TGI of COC(=O)CCC1(C)C2CCC1(C)/C(=N/O)C2 (stereo not drawn) noted as > 100 µM

Lab book: TGI of CC(C)(C)OC(=O)NC1CC=CCC1NC(=O)OC(C)(C)C (stereo not drawn) noted as > 100 µM

Lab book: TGI of Cc1onc(-c2c(F)cccc2Cl)c1-c1ncc(-c2ccc(Cl)cc2)o1 noted as > 100 µM

Lab book: TGI of CN(Cc1cnc(N)nc1N)c1ccc(C(=O)O)cc1 noted as > 100 µM

Lab book: TGI of O=C(/C=C1\C(=O)N(Cc2ccc([N+](=O)[O-])cc2)c2ccccc21)c1ccc(OCCN2CCCCC2)cc1 noted as 4.1 µM

Lab book: TGI of Cc1nc(Cl)c2sc(=S)n(-c3ccc(F)cc3)c2n1 noted as 13.2 µM

Lab book: TGI of C=C(C)[C@@H]1C[C@H]2O[C@](O)(C(=C)CC(=O)/C=C(/C)C[C@@H]3OC(=O)[C@]24O[C@@H]34)[C@H]1O noted as > 100 µM

Lab book: TGI of Cc1nc(Cl)c(Cl)c(Cl)n1 noted as 1.91 µM

Lab book: TGI of Cc1csc(/C=N/NC(=O)c2nnn(-c3ccnc4c(C(F)(F)F)cccc34)c2C)c1 noted as > 100 µM

Lab book: TGI of Cc1cccc(-n2c(C)nc3ccc(NC4OC(CO)C(O)C(O)C4O)cc3c2=O)c1 (stereo not drawn) noted as > 100 µM

* * *

System: HL-60(TB) leukemia
protocol: NCI tumour cell line growth inhibition, 48 h
Answer each item with its documented TGI.

Lab book: TGI of O=C1c2ccccc2C(=O)C2C1C1C(=O)c3ccccc3C(=O)C21 (stereo not drawn) noted as > 100 µM

Lab book: TGI of CSc1c(C#N)c(O)n(-c2ccc(C)cc2)c(=O)c1C#N noted as > 100 µM

Lab book: TGI of CC1=C(C(=O)N[C@@H](Cc2ccccc2)C(=O)O)N2C(=O)[C@@H](NC(=O)[C@@H](N)CC(C)C)[C@H]2SC1 noted as > 100 µM

* * *

Test system: OVCAR-4 ovarian
protocol: NCI tumour cell line growth inhibition, 48 h
reported.metric: TGI

Lab book: TGI of N#Cc1nc(CSCc2ccccc2)oc1N noted as > 100 µM

Lab book: TGI of Clc1ccccc1C(n1ncc2ccccc21)n1ncc2ccccc21 noted as > 100 µM

Lab book: TGI of Cc1cccc2[nH]c3cc(O)cc(O)c3c(=O)c12 noted as > 10 µM

Lab book: TGI of CC[C@@]1(OC(=O)CN)C(=O)OCc2c1cc1n(c2=O)Cc2cc3cc4c(cc3nc2-1)OCO4 noted as 0.826 µM

Lab book: TGI of COc1ccc(C(C#N)NC23CC4CC(CC(C4)C2)C3)cc1OC (stereo unspecified) noted as > 100 µM

Lab book: TGI of Oc1c(C(Nc2cccc3ccccc23)c2ccccc2)ccc2cccnc12 (stereo unspecified) noted as > 100 µM

* * *

System: BT-549 breast
protocol: NCI tumour cell line growth inhibition, 48 h
Answer each item with its documented TGI.
Answer with a number only, understood to be in µM.

Lab book: TGI of C=CCn1c(=O)c2cnc(Nc3ccc(N4CCN(C)CC4)cc3)nc2n1-c1ccc2c(n1)[C@@](O)(CC)CC2 noted as 3.46

Lab book: TGI of Oc1c(C(Nc2cccc3ccccc23)c2ccccc2)ccc2cccnc12 (stereo not drawn) noted as 14.5

Lab book: TGI of Cc1nc(Cl)c2sc(=S)n(-c3ccc(F)cc3)c2n1 noted as 12.1

Lab book: TGI of CC1=NN(c2nc(N)nc(/C(C#N)=C/c3ccc([N+](=O)[O-])o3)n2)C(C)(C)C1 noted as 9.24

Lab book: TGI of O=C(/C=C/C12c3ccccc3C(c3ccccc31)C1C(=O)N(c3ccccc3)C(=O)C12)c1ccc(Cl)cc1 (stereo not drawn) noted as 2.88

Lab book: TGI of O=[N+]([O-])c1cc([N+](=O)[O-])c(Cl)c(Cl)c1Cl noted as 21

* * *

Test system: HOP-62 NSCLC
protocol: NCI tumour cell line growth inhibition, 48 h
reported.metric: TGI

Lab book: TGI of CCOC(=O)N1CCN(c2c(C)nc(C)[nH]c2=O)CC1 noted as > 100 µM

Lab book: TGI of CC1(C)CC(=O)/C(=C/C2CCNC2=S)C(=O)N1 (stereo unspecified) noted as > 100 µM

Lab book: TGI of Cc1nc(Cl)c2sc(=S)n(-c3ccc(F)cc3)c2n1 noted as 9.73 µM

Lab book: TGI of CNC(=O)CCNC(=O)CCC(=O)N(C)C noted as > 100 µM

Lab book: TGI of [N-]=[N+]=Nc1ccc(NCCCCCC(=O)ON2C(=O)CCC2=O)c([N+](=O)[O-])c1 noted as > 100 µM

Lab book: TGI of O=C(C/C(=N\NC(=O)C[n+]1ccccc1)C(=O)Nc1nc2ccc([N+](=O)[O-])cc2s1)CC(c1ccccc1)c1c(O)c2ccccc2oc1=O (stereo unspecified) noted as > 100 µM

Lab book: TGI of CCCN(CCCN)/[N+]([O-])=N\O noted as > 100 µM

Lab book: TGI of O=C(O)c1nc2cc(C(F)(F)F)ccc2nc1Nc1ccc(Cl)c(Cl)c1 noted as 27.6 µM

Lab book: TGI of COC(=O)/C=C/c1cnc2c(c1)oc(=O)n2CCc1ccccn1 noted as > 100 µM

Lab book: TGI of Cc1onc(-c2c(F)cccc2Cl)c1-c1ncc(-c2ccc(Cl)cc2)o1 noted as > 100 µM

Lab book: TGI of C#CCn1c(=O)ccn(/C(=C\C(=O)OCC)C(=O)OCC)c1=O noted as > 54.4 µM

Lab book: TGI of CC(C)N(C(=O)C12C3C4C5C3C1(C(=O)N(C(C)C)C(C)C)C5(C#N)C42)C(C)C (stereo unspecified) noted as > 100 µM

Lab book: TGI of COc1cccc(C(=O)Nc2ccc(CN3CCc4nc5cc(OC)c(OC)cc5cc43)cc2)c1 noted as 37.8 µM

Lab book: TGI of NC1=NC(c2ccc(Cl)cc2)N(c2ccc(S(=O)(=O)Nc3ncccn3)cc2)C(N)=N1 (stereo unspecified) noted as > 100 µM

Lab book: TGI of CN(CCC#N)c1ccc(/C=C(\C#N)c2cccc(C(F)(F)F)c2)cc1 noted as > 100 µM

Lab book: TGI of CCOC(=O)C1=C(C)NC2SC(=O)/C(=C\c3ccccc3Cl)N2C1c1ccccc1 (stereo unspecified) noted as > 100 µM

Lab book: TGI of COc1ccc(/C(CCl)=C(\Nc2ccccc2)c2ccc(OC)c(OC)c2)cc1OC noted as > 100 µM

Lab book: TGI of CCC(CS(=O)(=O)O)[N+](=O)[O-] (stereo unspecified) noted as > 100 µM

Lab book: TGI of CC(=O)[CH-]C(=O)c1ccccc1.CC(=O)[CH-]C(=O)c1ccccc1.COc1cccc([O-])c1[O-].[Ti+4] noted as > 100 µM

Lab book: TGI of O=c1[nH]c(=O)n(C2CC(O)C(CO)O2)cc1NN=NCCc1ccccc1 (stereo unspecified) noted as > 100 µM

Lab book: TGI of CC(=O)NC1=C(C)C(=O)c2c(nc3n2CCC3OC(=O)c2ccccc2)C1=N (stereo unspecified) noted as 7.28 µM
